# ASSAY EXPLANATION: Cytotoxicity against mouse BV2 cells assessed as cell viability at 40 uM relative to control
# Type: cell-based, BV-2
# ASSAY CONTEXT: read-out: Activity
QUANTITY: viability at 40 µM (%)
Field: numeric (%). Do not append units.

Incoming: Tell me the measured viability at 40 µM of C=C1CCC[C@H]2[C@](C)(C[C@H]3C(=O)C=C(OC)[C@@H]3O)[C@@H](C)CC[C@]12C , please.
Outgoing: 141

Incoming: Consider next the compound C=C1CCC[C@H]2[C@](CO)(Cc3cc(C(=O)OC)c(O)c(OC)c3O)[C@@H](C)CC[C@]12C in the same way.
Outgoing: 160

Incoming: Consider next the compound C=C1CCC[C@H]2[C@](C)(CC3=C(O)C(=O)C=C(OC)C3=O)[C@@H](C)CC[C@]12C in the same way.
Outgoing: 95.7

Incoming: Consider next the compound C=C1CCC[C@H]2[C@](C)(Cc3cc(C(=O)OC)ccc3O)[C@@H](C)CC[C@]12C in the same way.
Outgoing: 121

Incoming: Consider next the compound C=C1CCC[C@H]2[C@](C)(Cc3c(O)c(OC)cc4ncoc34)[C@@H](C)CC[C@]12C in the same way.
Outgoing: 92.1

Incoming: Consider next the compound C=C1CCC[C@H]2[C@](CO)(Cc3cc(C(=O)OC)cc(OC)c3O)[C@H](C)CC[C@]12C in the same way.
Outgoing: 171
